# Test system: 786-0
# Protocol Text: NCI tumour cell line growth inhibition, 48 h
Activity calls are given as the source filed them. Rule as the data show it: active = GI50 up to about 1.1 µM and inactive = higher.
Reported Endpoint: GI50

# Compound, Observed Measurement
records = [
    ("CC(C)CCNC(=O)c1ccc(CNC(=O)/C=C/c2ccc3ccccc3c2)cc1", "> 100 µM (inactive)"),
]

Let us move to another entry and its GI50.
Request: Look at this compound and give its reported GI50. CCC(C)c1cccc(C)c1NC(=O)C(=O)Cc1nc2ccccc2s1 (centres undefined)
Result: > 100 µM (inactive)

====

# Tested on: CAKI-1
# Protocol Text: NCI tumour cell line growth inhibition, 48 h
Active and inactive are the calls of the source. No stated cut-off is given here; in the data, active = GI50 up to about 1.1 µM and inactive = higher.
Outcome field: choose from active, inactive

For orientation, consider the following solved cases.
# Smiles Input, Group Label
measured = [
    ("Cc1nc(O)nc(N(CCO)/N=C/c2ccc(Cl)cc2)c1C(=O)Nc1ccc(Cl)cc1", "inactive"),
    ("COCCCN(Cc1cc(OC)c(OC)c(OC)c1)C(=S)Nc1cccc(Cl)c1", "inactive"),
    ("Cc1oc2c(C)c(O)c3c(c2c1C1(C)OCCO1)C(=O)C=C(Cl)C3=O", "inactive"),
]

Request: Per the records of this test, what outcome belongs to CC[C@](O)(CC(=O)O[C@H]1C(=O)O[C@@H]2C[C@H]3C(C)=CC(=O)[C@@H](O)[C@]3(C)[C@H]3[C@@]4(O)OC[C@]32[C@@H]1[C@@H](C)[C@H]4O)C(C)C ?
Result: active
